Target: T1, GLP-1 receptor present in the plasma membranes isolated from RINm5F cells (UniProt P32301 22-463, limits assumed)
T1 sequence (looked up): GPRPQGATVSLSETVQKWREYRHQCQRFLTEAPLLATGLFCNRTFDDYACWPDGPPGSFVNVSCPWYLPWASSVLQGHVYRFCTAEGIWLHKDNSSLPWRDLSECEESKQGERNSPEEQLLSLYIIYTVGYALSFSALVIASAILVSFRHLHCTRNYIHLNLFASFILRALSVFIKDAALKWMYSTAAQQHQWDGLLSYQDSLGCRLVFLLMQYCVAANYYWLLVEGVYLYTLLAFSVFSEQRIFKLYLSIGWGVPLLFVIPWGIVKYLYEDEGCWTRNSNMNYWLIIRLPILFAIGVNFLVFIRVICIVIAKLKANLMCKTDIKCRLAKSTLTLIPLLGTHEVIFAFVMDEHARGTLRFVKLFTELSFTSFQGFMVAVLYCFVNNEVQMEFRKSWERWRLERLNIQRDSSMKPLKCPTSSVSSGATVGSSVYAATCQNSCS
Assay: cell-based or functional assay
Ends that are not written are not given here. * marks the point of attachment. Palmitoyl = CCCCCCCCCCCCCCCC(=O)*
Exam item: assign rule met to entries whose Relative Potency (%), cAMP SPA in RINm5F cells is below 10% and rule not met to entries at or above 10%. Note that a value of exactly 10% receives rule not met.

Below, 10 binders whose answers are already recorded.
> print(dat)
                                      binder  assigned.label
 1     HSQGTFTSDYARYLDAKKAKEFIAWLVKGRG [G59]    rule not met
 2  HSQGTFTSDYARYLDARRAKEFIAWLVKGR-NH2 [G55]    rule not met
 3  HSQGTFTSDYARYLDARRAREFIKWLVRGRC(PEG22kD) [G2185]        rule met
 4    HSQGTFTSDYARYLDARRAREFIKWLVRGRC [G185]    rule not met
 5     HSQGTFTSDYAKYLDARRAKEFIAWLVCGRG [G74]        rule met
 6  HSQGTFTSDYAKYLDARRAKEFIAWLVKGR-NH2 [G27]    rule not met
 7  HSQGTFTSDYARYLDARRAREFIK(Palmitoyl)WLVRGRG [G90]        rule met
 8  HSQGTFTSDYARYLDARRAK(Palmitoyl)EFIKWLVRGRG (not fully specified; printed as HSQGTFTSDYARYLDARRAK(FA)EFIKWLVRGRG) [G183]        rule met
 9   HSQGTFTSDYSKYLDSRRAQDFVQWLVKGR-NH2 [G1]        rule met
10  HSQGTFTSDYAKYLDAARAKEFIAWLVKGR-NH2 [G57]    rule not met

q: # TODO verify Relative Potency (%), cAMP SPA in RINm5F cells < 10% strictly for this binder: HSQGTFTSDYSKYLEGQAAKEFIAWLVKGR-NH2 [G5]
a: rule not met

q: # TODO verify Relative Potency (%), cAMP SPA in RINm5F cells < 10% strictly for this binder: HSQGTFTSDYAAYLDARRAKEFIAWLVKGR-NH2 [G56]
a: rule not met

q: # TODO verify Relative Potency (%), cAMP SPA in RINm5F cells < 10% strictly for this binder: HSQGTFTSDYAKYLDARRAKEFIAWLVKGRG [G51]
a: rule not met

q: # TODO verify Relative Potency (%), cAMP SPA in RINm5F cells < 10% strictly for this binder: HSQGTFTSDYARYLDAAKAKEFIAWLVKGRG [G61]
a: rule not met

q: # TODO verify Relative Potency (%), cAMP SPA in RINm5F cells < 10% strictly for this binder: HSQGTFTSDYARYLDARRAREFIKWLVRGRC(PEG43kD) [G4185]
a: rule met

q: # TODO verify Relative Potency (%), cAMP SPA in RINm5F cells < 10% strictly for this binder: HSQGTFTSDYAKYLDAKKAKEFIAWLVKGRG [G58]
a: rule not met

q: # TODO verify Relative Potency (%), cAMP SPA in RINm5F cells < 10% strictly for this binder: HSQGTFTSDYAKYLDARRAKEFIAWLVKCRG [G75]
a: rule met

q: # TODO verify Relative Potency (%), cAMP SPA in RINm5F cells < 10% strictly for this binder: HSQGTFTSDYARYLDARRAREFIAWLVRGRGK [G85]
a: rule not met

q: # TODO verify Relative Potency (%), cAMP SPA in RINm5F cells < 10% strictly for this binder: HSQGTFTSDYAKYLDARRACEFIAWLVKGRG [G71]
a: rule met

q: # TODO verify Relative Potency (%), cAMP SPA in RINm5F cells < 10% strictly for this binder: HSQGTFTSDYAKYLDARRAKEFIAWLVKGCG [G76]
a: rule met

q: # TODO verify Relative Potency (%), cAMP SPA in RINm5F cells < 10% strictly for this binder: HSQGTFTSDYARYLDARRAREFIKWLVRGRGK(Palmitoyl) [G182]
a: rule met

q: # TODO verify Relative Potency (%), cAMP SPA in RINm5F cells < 10% strictly for this binder: HSQGTFTSDYAKYLDARRAKEFIAWLVKGRC [G77]
a: rule met
